This collection of values is drawn from patent US10729671B2.

ASSAY NOTES: Zn2+ binding affinity
Experimental: It can function as an ionophore in conditions of the liposome experiments where external [Zn^2+]free was 10 μM. However, in complete media containing 10% fetal bovine serum (FBS), Zn^2+-binding proteins from the serum (e.g. albumin) necessarily compete for Zn^2+ with any putative MC, making the effective [Zn^2+]free much lower than [Zn^2+]total. FZ3-AM, RZ-3 (K^+ salt), and cell culture media were purchased from Life Technologies. DOPC was purchased from Avanti Polar Lipids. […]
PARAMETER MEASURED: Kd (µM)

>>> print(df.to_string())
            structure_as_smiles  measure_unit  reported_result
0  C/C(=N\NC(=O)N1CCC1)c1ccccn1            µM              1.1
